target: human Kv72+3 channels (Homo sapiens, UniProt O43525+O43526); construct: expressed in transfected cells; experiment: Patch-clamp on HEK293 cells stably expressing human Kv7.2+3 channels; type: cell-based; settings: conc. 0.03 μM, −30 mV, 20 ms, current relative to baseline current defined as 100%, read-out: IK (%)
READOUT_NAME: activity at 0.03 µM (%)

Some compounds with recorded activity at 0.03 µM:
N#Cc1ccc(CNc2ccc(NC(=O)Cc3cc(F)cc(F)c3)c(N3CCCC3)n2)cc1 = 490
COc1ccc(CNc2ccc(NC(=O)Cc3cc(F)cc(F)c3)c(N3CCCC3)n2)cc1 = 842

a = CC(C)(C)CC(=O)Nc1ccc(NCc2ccc3c(c2)OCO3)nc1N1CCCC1
b = CC(C)(C)CC(=O)Nc1ccc(NCc2ccc(F)cc2)nc1N1CCCC1
Record comparison, field activity at 0.03 µM: mark the lower of a and b . // return label of chosen record
a

a = O=C(Nc1ccc(NCc2ccc(F)cc2)nc1N1CCCC1)[C@@H]1C[C@H]1c1ccccc1
b = O=C(Cc1ccc(C(F)(F)F)c(F)c1)Nc1ccc(NCc2ccc(F)cc2)nc1N1CCCC1
# min-compare on activity at 0.03 µM between a and b Label of pick, please.
a
(a: 192%, b: 306%)
